Catalogue of IC50 values
tested on: Plasmodium falciparum; test: Antiplasmodial activity against chloroquine-resistant Plasmodium falciparum W2 assessed as inhibition of parasite LDH activity […] after 72 hrs by malstat reagent method; type: functional, organism-based; settings: W2, 72 h
State just the number; it will be interpreted in µM.

Solved cases below.
compound	target	IC50 (µM)
O=C(O)C1C(C(=O)Nc2ccc(O)cc2)[C@H]2CC[C@@H]1O2 (some centres not stated)	Plasmodium falciparum	333
CC(C)(C)c1ccc(C(C)(C)C)c(NC(=O)C2C(C(=O)O)[C@@H]3CC[C@H]2O3)c1 (some centres not stated)	Plasmodium falciparum	205
CCCCCCNC(=O)C1C(C(=O)O)[C@@H]2CC[C@H]1O2 (some centres not stated)	Plasmodium falciparum	390

Request: Give the measured IC50 of CCC(C)N1C(=O)C2C(C1=O)[C@H]1CC[C@@H]2O1 (some centres not stated) .
Result: 125

Request: Give the measured IC50 of O=C(O)C1C(C(=O)N2CCSCC2)[C@H]2CC[C@@H]1O2 (some centres not stated) .
Result: 204

---

Catalogue of pIC50 values
system: Plasmodium falciparum; test: Antiplasmodial activity against chloroquine-sensitive Plasmodium falciparum D6 assessed as inhibition of parasite LDH activity after 72 hrs by malstat reagent method; format: functional, organism-based; details: D6, 72 h
The value called pIC50 is obtained by taking minus log10 of the concentration in mol/L.

Solved cases below.
compound	target	pIC50
CC(C)(C)c1cc(NC(=O)C2C(C(=O)O)[C@@H]3CC[C@H]2O3)cc(C(C)(C)C)c1 (stereo not given in full)	Plasmodium falciparum	4.23
O=C(O)C1C(C(=O)Nc2ccc(O)cc2)[C@H]2CC[C@@H]1O2 (stereo not given in full)	Plasmodium falciparum	3.58

Then there is this compound:
Request: # query: pIC50 | item COc1ccc(CN2C(=O)C3C(C2=O)[C@H]2CC[C@@H]3O2)cc1 (stereo not given in full) | system: Plasmodium falciparum
Result: 4.62

---

test system: Plasmodium falciparum; experiment: Antiplasmodial activity against chloroquine-sensitive Plasmodium falciparum D6 assessed as inhibition of parasite LDH activity after 72 hrs by malstat reagent method; assay type: functional, organism-based; conditions: D6, 72 h
quantity: log10 IC50 (log10 of the value in µM)
Parameter value (number): base-10 log of IC50 in µM.

Solved cases below.
molecule	target	log10 IC50
O=C(O)C1C(C(=O)NCCc2cnc[nH]2)[C@H]2CC[C@@H]1O2 (stereo not given in full)	Plasmodium falciparum	2.49
O=C(O)C1C(C(=O)N2CCSCC2)[C@H]2CC[C@@H]1O2 (stereo not given in full)	Plasmodium falciparum	2.40
Cc1cccc(C)c1NC(=O)C1C(C(=O)O)[C@@H]2CC[C@H]1O2 (stereo not given in full)	Plasmodium falciparum	2.49
C#Cc1cccc(NC(=O)C2C(C(=O)O)[C@@H]3CC[C@H]2O3)c1 (stereo not given in full)	Plasmodium falciparum	2.29
C=CCNC(=O)C1C(C(=O)O)[C@@H]2CC[C@H]1O2 (stereo not given in full)	Plasmodium falciparum	0.48

Request: # query: log10 IC50 | item O=C(O)C1C(C(=O)Nc2cccc3ccccc23)[C@H]2CC[C@@H]1O2 (stereo not given in full) | system: Plasmodium falciparum
Result: 2.32

Request: # query: log10 IC50 | item CSc1ccccc1NC(=O)C1C(C(=O)O)[C@@H]2CC[C@H]1O2 (stereo not given in full) | system: Plasmodium falciparum
Result: 2.53

Request: # query: log10 IC50 | item CCCCCCOc1ccc(NC(=O)C2C(C(=O)O)[C@@H]3CC[C@H]2O3)cc1 (stereo not given in full) | system: Plasmodium falciparum
Result: 2.11

Request: # query: log10 IC50 | item O=C(O)C1C(C(=O)Nc2ccc3ccccc3c2)[C@H]2CC[C@@H]1O2 (stereo not given in full) | system: Plasmodium falciparum
Result: 2.45

Request: # query: log10 IC50 | item CCCCCOc1ccc(NC(=O)C2C(C(=O)O)[C@@H]3CC[C@H]2O3)cc1 (stereo not given in full) | system: Plasmodium falciparum
Result: 2.04

Request: # query: log10 IC50 | item CCCCCCCCN1C(=O)C2C(C1=O)[C@H]1CC[C@@H]2O1 (stereo not given in full) | system: Plasmodium falciparum
Result: 2.35
